# experimental_system: human epidermal growth factor receptor 2 (HER2) (human, UniProt P04626 23-1255)
# method_description: cell-based or functional assay
What Maximal MFI, fab-CypHer5E internalization assay, AU565 cells was measured for each of the following?
One number for each entry, in MFI.

Below, each entry is followed by its recorded Maximal MFI, fab-CypHer5E internalization assay, AU565 cells result.
HER2 HuMab 159 (antibody, V domains shown, also called PC1014-159) VH: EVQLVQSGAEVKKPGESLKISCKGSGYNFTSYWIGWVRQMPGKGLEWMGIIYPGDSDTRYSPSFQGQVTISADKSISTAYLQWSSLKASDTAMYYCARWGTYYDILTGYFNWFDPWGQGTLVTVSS VL: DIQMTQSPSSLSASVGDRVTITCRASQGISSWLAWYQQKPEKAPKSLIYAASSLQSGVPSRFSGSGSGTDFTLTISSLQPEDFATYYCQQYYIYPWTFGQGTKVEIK = 92400
HER2 HuMab 169 (antibody, V domains shown) VH: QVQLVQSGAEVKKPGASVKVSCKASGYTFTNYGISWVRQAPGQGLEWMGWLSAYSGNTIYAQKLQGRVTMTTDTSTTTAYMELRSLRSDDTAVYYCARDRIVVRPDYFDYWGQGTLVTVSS VL: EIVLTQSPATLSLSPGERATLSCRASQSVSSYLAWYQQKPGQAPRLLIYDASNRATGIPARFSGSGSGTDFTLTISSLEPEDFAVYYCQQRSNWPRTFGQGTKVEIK = 38800
HER2 HuMab 153 (antibody, V domains shown, also called PC1014-153; TH1014-153) VH: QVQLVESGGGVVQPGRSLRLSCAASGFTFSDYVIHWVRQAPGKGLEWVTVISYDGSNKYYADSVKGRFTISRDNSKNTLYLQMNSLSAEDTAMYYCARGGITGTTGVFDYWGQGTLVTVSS VL: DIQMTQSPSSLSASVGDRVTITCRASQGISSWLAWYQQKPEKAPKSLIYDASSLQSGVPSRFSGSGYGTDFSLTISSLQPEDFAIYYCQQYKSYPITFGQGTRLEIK = 87500
HER2 HuMab 025 (antibody, V domains shown, also called PC1014-025; TH1014-025) VH: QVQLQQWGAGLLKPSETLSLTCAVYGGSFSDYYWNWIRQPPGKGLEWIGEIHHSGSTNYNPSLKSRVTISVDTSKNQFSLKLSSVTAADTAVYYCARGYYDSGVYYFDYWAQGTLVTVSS VL: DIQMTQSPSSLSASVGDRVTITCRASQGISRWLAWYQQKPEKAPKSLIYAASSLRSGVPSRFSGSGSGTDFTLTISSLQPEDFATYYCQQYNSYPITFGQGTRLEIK = 63400
HER2 HuMab 132 (antibody, V domains shown, also called PC1014-132) VH: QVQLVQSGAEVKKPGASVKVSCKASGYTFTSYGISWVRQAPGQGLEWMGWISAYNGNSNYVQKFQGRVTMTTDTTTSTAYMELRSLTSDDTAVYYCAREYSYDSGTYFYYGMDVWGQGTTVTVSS VL: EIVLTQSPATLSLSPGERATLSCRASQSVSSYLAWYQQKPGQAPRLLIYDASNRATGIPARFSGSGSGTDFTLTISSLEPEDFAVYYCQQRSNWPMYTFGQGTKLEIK = 112000

Query binder follows.
query: Item HER2 HuMab 059 (antibody, V domains shown, also called PC1014-059) VH: QVQLVQSGAEVKKPGASVRVPCKASGYTFTRYGISWVRQAPGQGLEWMGWISAYNGKTYYAQKLQGRVTMTTDTSTSTAYMELRSLRSDDTAVYYCARSPLLWFEELYFDYWGQGTLVTVSS VL: EIVLTQSPGTLSLSPGERATLSCRASQSVSSTYLAWYQQKPGQAPRLLIYGASSRATGIPDRFSGSGSGTDFTLTISRLEPEDFAVYYCQQYGTSLFTFGPGTKVDIK has what recorded Maximal MFI, fab-CypHer5E internalization assay, AU565 cells?
result: 77100
